Origin of the recorded values: patent US20060069132A1

System: Surinam grass
Assay Info: Test B pre-/postemergence herbicide test
Assay type: in vivo, Urochloa decumbens
Experimental Setup: 125 g ai/ha; visual rating, scale 0 (no effect) to 100 (complete control); postemergence
Method: […] At the same time, plants selected from these crop and weed species and also blackgrass (Alopecurus myosuroides Huds.), wheat (Triticum aestivum L.) and wild oat (Avena fatua L.) were treated with postemergence applications of test chemicals formulated in the same manner. […] Treated plants and controls were maintained in a greenhouse for 13 to 15 days, after which time all species were compared to controls and visually evaluated. […]

>  <Compound>
CCOC(=O)c1ccc(F)c(NC(=O)c2cc(C3(C)CC3)nn2CC)c1

>  <Surinam Grass plant response rating>
40

$$$$
>  <Compound>
CCc1nn(C(C)(C)C)nc1C(=O)Nc1cc(C(=O)N2CCCCC2)ccc1F

>  <Surinam Grass plant response rating>
10

$$$$
>  <Compound>
C#CCNC(=O)c1cccc(NC(=O)c2nn(C(C)(C)C)nc2CC)c1

>  <Surinam Grass plant response rating>
10

$$$$
>  <Compound>
CCc1nn(C(C)(C)CC)nc1C(=O)Nc1cccc(C(=O)N2CC=CC2)c1

>  <Surinam Grass plant response rating>
10

$$$$
>  <Compound>
CCOc1ccc(F)c(NC(=O)c2cc(C(C)(C)C)nn2CC)c1

>  <Surinam Grass plant response rating>
0

$$$$
>  <Compound>
Cc1nn(C(C)(C)C)cc1C(=O)Nc1cc(C(=O)N(C)C)ccc1F

>  <Surinam Grass plant response rating>
0

$$$$
>  <Compound>
COC(=O)c1ccc(F)c(NC(=O)c2nn(C(C)C)nc2C)c1

>  <Surinam Grass plant response rating>
10

$$$$
>  <Compound>
CCC1=NN(C(C)(C)C)CC1C(=O)Nc1cc(C(=O)N(C)CC)ccc1F (racemic)

>  <Surinam Grass plant response rating>
10

$$$$
>  <Compound>
CCn1nc(C2(C)CC2)cc1C(=O)Nc1cccc(C(=O)N2CC=CC2)c1

>  <Surinam Grass plant response rating>
0

$$$$
>  <Compound>
C#CCNC(=O)c1cccc(NC(=O)c2nn(C(C)C)nc2CC)c1

>  <Surinam Grass plant response rating>
10

$$$$
>  <Compound>
CCc1nn(C(C)(C)C)nc1C(=O)Nc1cc(C(=O)N(C)CC)ccc1F

>  <Surinam Grass plant response rating>
10

$$$$
